tested on: CEM cells HIV-1 protection, formazan growth assay; assay: NCI AIDS Antiviral Assay; conditions: measured here: growth of uninfected CEM cells
reported.endpoint: IC50

Example results:
| structure.notation | IC50 |
| --- | --- |
| O=C(O)Cn1c(=O)[nH]c(=O)c2[nH]cnc21 | > 1200 µM |
| O=Cc1c(C(=O)O)[nH]c(=O)[nH]c1=O | > 200 µM |

Record CCN(CC)c1ccc2cc(-c3nc4ccccc4c(=O)[nH]3)c(=N)oc2c1 has CEM cells HIV-1 protection, formazan growth assay IC50 equal to > 100 µM

###

test system: CEM cells HIV-1 protection, formazan growth assay; assay: NCI AIDS Antiviral Assay; conditions: measured here: growth of uninfected CEM cells
reported.endpoint: IC50

Known results for molecules:
| molecule | IC50 |
| --- | --- |
| CCCS(=N)(=O)CCC(N)C(=O)O (stereo unspecified) | > 200 µM |
| O=c1sc(-c2nc3ccccc3[nH]2)c(/N=C/c2ccccc2)n1-c1ccccc1 | > 2.63 µM |
| OCc1ccc2[n+](c1)CCC1c3ccccc3NC21 (stereo unspecified) | > 77.6 µM |
| Cc1ccc(C)c2c1C(=O)N(c1ccccc1)C2=O | > 200 µM |
| CC(=O)c1c2c(cc3c1CC1(Cc4cc5c(cc4C1)CCC5)C3)CCC2 | > 200 µM |

Per the records, this molecule ( CCOC(=O)c1ccc(N2CN3c4ccccc4CCC3C2c2c[nH]c(=O)[nH]c2=O)cc1 (stereo unspecified) ) has IC50 equal to > 69.2 µM

###

tested on: CEM cells HIV-1 protection, formazan growth assay; assay: NCI AIDS Antiviral Assay
Assign EC50 to each entry below.

Record excerpt, results attached:
| structure.notation | EC50 |
| --- | --- |
| CN(Cc1cnc2nc(N)nc(N)c2n1)c1ccc(C(=O)N[C@@H](CCC(=O)O)C(=O)O)cc1 | > 1.51 µM |
| O=c1[nH]nc(Cc2ccccc2)n1/N=C/c1ccccc1Cl | > 200 µM |

Kindly consider the entry below.
The compound identified as O=C1NC(S(=O)(=O)O)=NNC12c1ccccc1-c1ccccc12 registered its EC50 at > 200 µM

###

Exercise: for every item that follows, state its recorded IC50.
tested on: CEM cells HIV-1 protection, formazan growth assay; test: NCI AIDS Antiviral Assay; conditions: measured here: growth of uninfected CEM cells

Example entries begin here.
| compound | system.name | obs.value |
| --- | --- | --- |
| Cn1c(=O)c2c(nc3n2CCCC(=O)N3CCCCl)n(C)c1=O | CEM cells HIV-1 protection, formazan growth assay | > 100 µM |
| O=c1ccc(=O)n(CCc2ccccn2)[nH]1 | CEM cells HIV-1 protection, formazan growth assay | > 200 µM |
| COC(=O)c1cc(=O)n(-c2ccc3nn(C)nc3c2)cc1C(=O)OC | CEM cells HIV-1 protection, formazan growth assay | > 200 µM |

Record IC50 for all entries; do not skip any.
1. O=S(=O)(O)c1ccc2c(N=Nc3ccc(S(=O)(=O)O)c4ccccc34)c(O)c(S(=O)(=O)O)cc2c1
2. O=C1CCc2cc3c(cc21)C(C(=O)O)CC3 (centres undefined)
3. Cc1ccc(C(=O)N(C2CCCCC2)C2CCCCC2)cc1N=NN(C)C
4. COC(=O)[C@@]12CCCC(=O)[C@@H]1[C@H]1CCC[C@H]12
5. O=Nc1ccccc1

Reply:
["> 100 µM", "> 200 µM", "> 19.5 µM", "> 200 µM", "> 200 µM"]

Entry CCOC(=O)c1c(NC(=S)Nc2ccccc2)sc2c1CCN(C)C2 : IC50 on CEM cells HIV-1 protection, formazan growth assay = > 200 µM

###

system: CEM cells HIV-1 protection, formazan growth assay; assay: NCI AIDS Antiviral Assay; settings: measured here: growth of uninfected CEM cells
Provide the recorded IC50 for the entries that follow.

Known results for molecules:
| molecule | system.name | obs.value |
| --- | --- | --- |
| COc1cc2c(c([N+](=O)[O-])c1)NCCS2 | CEM cells HIV-1 protection, formazan growth assay | > 200 µM |
| O/N=C(/CC(O)(C(F)(F)F)C(F)(F)F)c1ccccc1 | CEM cells HIV-1 protection, formazan growth assay | > 200 µM |
| COC(=O)C1(NC(=O)C(N)CC(=O)O)C(C)C1C (stereo not given) | CEM cells HIV-1 protection, formazan growth assay | > 200 µM |

Look up IC50 for the entries below, preserving their order.
1. COC(=O)[C@H]1[C@@H](C(C)C)O[C@@H](C(C)C)O[C@H]1C(F)(F)F
2. O=C(O)c1cc2cccc(O)c2cc1O
3. CC(C)(C)C(=O)/C=C/c1ccc(Oc2ccccc2)cc1
4. Cc1ccc(S(=O)(=O)OCCOS(=O)(=O)c2ccc(C)cc2)cc1

Reply:
["> 200 µM", "> 200 µM", "> 25.7 µM", "> 36.3 µM"]

Hi there! I need IC50 for each item below, if you can.
1. Cc1ccc(NC(=S)/C(=C(/[O-])c2ccc([N+](=O)[O-])cc2)[n+]2ccccc2)c(C)c1
2. O=Nc1c(-c2ccccc2)nc2cc(-c3ccccc3)[nH]n12

Reply:
["> 200 µM", "> 18.2 µM"]

Summary for this molecule, O=C(N/C(=C\c1ccccc1[N+](=O)[O-])c1nc2ccccc2[nH]1)c1ccccc1 : IC50 is > 49 µM

###

Assignment: determine reported pIC50 for the given molecules.
Tested on: CEM cells HIV-1 protection, formazan growth assay
Experiment: NCI AIDS Antiviral Assay
Details: measured here: growth of uninfected CEM cells
Procedure: The ability of compounds to protect human CEM cells from HIV-1 infection is measured as a screen for new compounds capable of inhibiting the HIV virus. Five concentrations of drug were tested on uninfected and infected cells and cell growth was measured using a soluble formazan assay. […] Compounds that provided at least 50% protection were retested. Compounds that provided at least 50% protection on retest were listed as moderately active. […]
pIC50: −log10 of the molar value.

Take a look at these entries with their results.
| molecule | pIC50 |
| --- | --- |
| O=S1(=O)CCN(c2ccccc2CC(c2c[nH]c3ccccc23)c2c[nH]c3ccccc23)CC1 | < 5.24 |
| O=C1COCC(=O)N1 | < 2.66 |
| CN1B(c2ccccc2)N(C)C(=O)N(C)C1=O | < 3.70 |
| COC(=O)C(C(=O)C(=O)Nc1ccccc1C#N)c1nc2ccc([N+](=O)[O-])cc2[nH]c1=O (stereo unspecified) | < 4.78 |
| COC(=O)C(CCc1cc(OC)ccc1I)C1=CCC2(CC1)OCCO2 (stereo unspecified) | < 4.42 |
| COc1ccc(-c2onc3ccc(Cl)cc23)cc1 | < 4.70 |
| O=C(/C=C/c1ccccc1Cl)c1cccc2ccccc12 | < 5.03 |
| C1Cn2nnnc2N1 | < 2.65 |

Hello, I would appreciate it if you could give pIC50 for each entry below.
1. COC(=O)C1CC2c3ccccc3C1c1ccccc12 (stereo unspecified)
2. CCOC(=O)/C(O)=C/c1nc2ccccc2nc1C
3. CCOC(=O)C1C(c2ccc3c(c2)OCO3)c2c([nH][nH]c2=O)CC1(O)OCC (stereo unspecified)
4. O=C(/C(=C/c1ccccc1Cl)c1ccccc1)c1ccccc1
5. COC(=O)C12CCC(C(=O)OC)(CC1)n1c(=O)n(-c3ccccc3)c(=O)n12
6. CCOC(=O)/C=C1/Nc2cc(Cl)c(Cl)cc2NC1=O
7. COC(=O)c1cc(C(=O)OC)c2c3[nH]cnc3ncn2c1=O

Reply:
1: < 3.70; 2: < 4.33; 3: < 3.70; 4: < 5.07; 5: < 3.70; 6: < 5.04; 7: < 3.70

###

system: CEM cells HIV-1 protection, formazan growth assay; assay: NCI AIDS Antiviral Assay; conditions: measured here: growth of uninfected CEM cells
Where a SMILES comes first, the peptide text is derived from it. The star is where a group is joined. OSu = O=C1CCC(=O)N1O*
reported.endpoint: IC50

Worked examples follow.
| compound | system.name | IC50 |
| --- | --- | --- |
| O=C(NC(=Nc1ccccc1)SCCSC(=Nc1ccccc1)NC(=O)c1ccccc1)c1ccccc1 | CEM cells HIV-1 protection, formazan growth assay | > 18.6 µM |
| NC(CCC(=O)NC(CS)C(=O)NCC(=O)O)C(=O)O (centres undefined) | CEM cells HIV-1 protection, formazan growth assay | > 288 µM |
| NC(=O)C(=O)N/N=C(\CC1(O)C(=O)Nc2ccccc21)c1ccc2ccccc2c1 (centres undefined) | CEM cells HIV-1 protection, formazan growth assay | > 33.9 µM |

Report IC50 for every entry below.
1. CCOC(=O)C1(c2ccccc2)CCNC(=O)CC1 (centres undefined)
2. CSc1nc(C)c2c(n1)N(c1ccc(Cl)cc1)CC2
3. NCCCCC(NC(=O)C(N)Cc1ccc(O)cc1)C(=O)NC(Cc1ccc(O)cc1)C(=O)NC(CCCCN)C(=O)ON1C(=O)CCC1=O (centres undefined) (H-YKYK-OSu; configuration not given here)
4. CC(C)=CC1CC(=O)C1(C)Sc1ccccc1 (centres undefined)
5. COC(=O)Nc1cn2c(n1)SCC2
6. CC1CCc2ccccc2O1 (centres undefined)

Reply:
1. > 955 µM
2. > 200 µM
3. > 200 µM
4. > 40.7 µM
5. > 200 µM
6. > 200 µM
